assayed_target: Histone deacetylase 1 (Homo sapiens)
Sequence (Q13547 whole entry): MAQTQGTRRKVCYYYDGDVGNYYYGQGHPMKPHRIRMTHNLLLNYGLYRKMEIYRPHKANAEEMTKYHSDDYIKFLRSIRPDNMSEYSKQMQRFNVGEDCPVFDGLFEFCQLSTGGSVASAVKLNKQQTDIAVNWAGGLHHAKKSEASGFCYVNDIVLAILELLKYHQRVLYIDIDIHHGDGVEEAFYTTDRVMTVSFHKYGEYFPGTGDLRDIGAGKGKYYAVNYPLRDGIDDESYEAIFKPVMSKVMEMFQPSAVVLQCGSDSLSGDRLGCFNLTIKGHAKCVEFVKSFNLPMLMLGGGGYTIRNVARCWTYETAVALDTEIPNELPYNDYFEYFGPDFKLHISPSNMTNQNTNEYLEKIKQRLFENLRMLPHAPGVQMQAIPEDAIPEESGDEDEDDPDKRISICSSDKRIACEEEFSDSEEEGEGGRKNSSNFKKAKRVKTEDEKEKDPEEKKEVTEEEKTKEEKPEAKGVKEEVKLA
measure: log10 of IC50 (log10 of the value in nM)
Scale type: logarithmic (base 10). Underlying IC50 unit: nM.

# annotated cases, reported log10 of IC50 shown
query: Answer with the recorded log10 of IC50 for the compound listed here: O=C(CCCCCCC(=O)Nc1ccc(-c2ccnc(Nc3ccc(N4CCOCC4)cc3)n2)cc1)NO
result: 1.75

query: Answer with the recorded log10 of IC50 for the compound listed here: CC(=O)Nc1ccc(-c2ccnc(Nc3cccc(OCCCCCC(=O)NO)c3)n2)cc1
result: 2.80

query: Answer with the recorded log10 of IC50 for the compound listed here: CC(=O)Nc1ccc(-c2ccnc(Nc3cccc(OCCCCCCCC(=O)NO)c3)n2)cc1
result: 3.02

query: Answer with the recorded log10 of IC50 for the compound listed here: CN1CCN(CC(=O)Nc2ccc(-c3ccnc(Nc4cccc(OCCCCCCC(=O)NO)c4)n3)cc2)CC1
result: 2.54

Okay, here is my list. What is log10 of IC50 for each of these?
1. CN1CCN(CC(=O)Nc2ccc(-c3ccnc(Nc4ccc(OCCCCCCC(=O)NO)cc4)n3)cc2)CC1
2. CC(=O)Nc1ccc(-c2ccnc(Nc3ccc(OCCCCCCCC(=O)NO)cc3)n2)cc1
3. CC(=O)Nc1ccc(-c2nc(Nc3cccc(OCCCCCCCC(=O)NO)c3)ncc2C)cc1
4. CC(=O)Nc1ccc(-c2ccnc(Nc3cccc(OCCCCCCC(=O)NO)c3)n2)cc1

result:
[2.15, 3.23, 3.66, 1.92]

----------
method_notes: Selectivity index, ratio of CC50 for human AC10 cells to IC50 for human KMS-12-BM cells
Type: toxicity
reported_conditions: AC10 cells (CC50) and KMS-12-BM cells (IC50)
Kindly state selectivity ratio for each of the entries shown.
Give bare numbers.

# annotated cases, reported selectivity ratio shown
query: Answer with the recorded selectivity ratio for the compound listed here: CC(=O)Nc1ccc(-c2ccnc(Nc3cccc(OCCCCCCC(=O)NO)c3)n2)cc1
result: 8.54

query: Answer with the recorded selectivity ratio for the compound listed here: CC(=O)Nc1ccc(-c2ccnc(Nc3cccc(OCCCCCC(=O)NO)c3)n2)cc1
result: 14.7

query: Answer with the recorded selectivity ratio for the compound listed here: CC(=O)Nc1ccc(-c2ccnc(Nc3ccc(OCCCCCCC(=O)NO)cc3)n2)cc1
result: 23.9

query: Answer with the recorded selectivity ratio for the compound listed here: CC(=O)Nc1ccc(-c2nc(Nc3cccc(OCCCCCCCC(=O)NO)c3)ncc2C)cc1
result: 38.3

Attention now turns to another entry.
query: Answer with the recorded selectivity ratio for the compound listed here: CC(=O)Nc1ccc(-c2ccnc(Nc3ccc(NC(=O)CCCCCCC(=O)NO)cc3)n2)cc1
result: 16.8

----------
method_notes: Antiproliferative activity against human AC10 cells after 72 hrs by MTT assay
Format: cell-based
Lab note: cut-off is 5 µM. Strictly less in CC50 at 72 h is 1. Exactly 5 µM or more is 0.

query: Given CC(=O)Nc1ccc(-c2ccnc(Nc3ccc(OCCCCCCCC(=O)NO)cc3)n2)cc1 , is recorded CC50 at 72 h strictly lower than 5 µM?
result: 1

query: Given CC(=O)Nc1ccc(-c2ccnc(Nc3cccc(OCCCCCCCC(=O)NO)c3)n2)cc1 , is recorded CC50 at 72 h strictly lower than 5 µM?
result: 0

query: Given CC(=O)Nc1ccc(-c2ccnc(Nc3cccc(OCCCCCCC(=O)NO)c3)n2)cc1 , is recorded CC50 at 72 h strictly lower than 5 µM?
result: 1

Others:
query: Given O=C(CCCCCCC(=O)Nc1ccc(-c2ccnc(Nc3ccc(N4CCOCC4)cc3)n2)cc1)NO , is recorded CC50 at 72 h strictly lower than 5 µM?
result: 1
